# System: cell culture-derived HCV (HCVcc)
# assay-notes: microbe, parasite or virus in culture
# Assay type: cell-based, hepatitis C virus
# condition: Hepatitis C virus, Huh7.5, 72 h, read-out: EC50 (concentration inhibiting HCVcc infectivity by 50%)
# Procedure: Huh7.5 cells were grown in Dulbecco's modified essential media (DMEM), 10%0/fetal bovine serum (FBS), 1% penicillin-streptomycin (pen-strep), 1% Non-essential amino acids (NEAA) in a 5% CO2 incubator at 37° C. Huh7.5 cells were seeded at 1×10^4 cells per well into 96-well plates according to Southern Research Institute standard format. Test articles were serially diluted with DMEM plus 5% FBS. […] The number of cells in each well were determined by CytoTox-1 reagent (Promega). […]
reported-property: EC50 (µM)
Reply numerically in µM, unit not repeated.

EC50 reported for this compound COC(=O)C1=C(C)NC(C)=C(C(=O)OC(C)C)C1c1cccc2nonc12 (stereo not shown) [Isradipine, isradipine] : 12.6

====

# System: HCV replicon
# assay-notes: HCV replicon assay (antiviral activity, luciferase endpoint)
# Assay type: cell-based, hepatitis C virus
# condition: Hepatitis C virus, GT1B, 72 h, read-out: EC50 (concentration inhibiting HCV replicon by 50%)
reported-property: EC50 (µM)
Record the value in µM, omitting the unit from your answer.

Record COC(=O)C1=C(C)NC(C)=C(C(=O)OC(C)C)C1c1cccc2nonc12 (stereo not shown) . Reported EC50: 51.4

====

# assay-notes: in vitro
# Assay type: cell-based
# condition: human
reported-property: CC50 at 72 h (µM)
The figure you give is taken to be in µM; do not add the unit.

# CC50 at 72 h (compound: COC(=O)C1=C(C)NC(C)=C(C(=O)OC(C)C)C1c1cccc2nonc12 (stereo not shown) ) is 51.2
